Origin of the recorded values: patent US9809625B2

target: PD-1-Ig binding to PD-L1-TVMV-His (PD-L1-His) (Homo sapiens, UniProt Q9NZQ7); construct: hPDL1(19-239)-TVMV-His; TVMV protease cleavage site (C); experiment: PD-1/PD-L1 Homogenous Time-Resolved Fluorescence (HTRF) binding assay; details: PD-1-Ig (20 nM)/PD-L1-His (10 nM), range classes
Sequence (Q9NZQ7 with tags, fused parts or gaps): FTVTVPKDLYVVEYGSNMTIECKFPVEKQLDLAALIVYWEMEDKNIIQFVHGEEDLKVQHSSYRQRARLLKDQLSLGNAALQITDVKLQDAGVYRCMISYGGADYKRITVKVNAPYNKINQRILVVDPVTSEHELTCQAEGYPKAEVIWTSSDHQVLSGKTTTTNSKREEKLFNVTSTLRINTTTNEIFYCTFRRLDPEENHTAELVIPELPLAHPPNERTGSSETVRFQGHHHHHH
Bridge positions count the residues as written; N and C are the ends. Square brackets hold non-standard residues; d marks the D form. Peptide text beside a SMILES is read from it. ξ: configuration not given here. Hyp = O=C(O)[C@@H]1C[C@@H](O)CN1; ξW = NC(Cc1c[nH]c2ccccc12)C(=O)O; NMeNle = CCCC[C@H](NC)C(=O)O; NMeA = CN[C@@H](C)C(=O)O; Dap = NC[C@H](N)C(=O)O; βAla = NCCC(=O)O
Measurement Label: IC50

Return reported IC50; argument: CCCC[C@H]1C(=O)N(C)[C@@H](CCCC)C(=O)N[C@@H](CC(C)C)C(=O)N[C@H](C(=O)NCC(=O)NCCC(N)=O)CSCC(=O)N[C@@H](Cc2ccc(O)cc2)C(=O)N(C)[C@@H](C)C(=O)N[C@@H](CC(N)=O)C(=O)N2CCC[C@H]2C(=O)N[C@@H](CN)C(=O)N[C@@H](CC(C)C)C(=O)N2C[C@H](O)C[C@H]2C(=O)N[C@@H](Cc2c[nH]c3ccccc23)C(=O)NCC(=O)NC(Cc2c[nH]c3ccccc23)C(=O)N1C (stereo partly shown) [Example 13110] ({CH2CO}-Y[NMeA]NP[Dap]L[Hyp]WG[ξW][NMeNle][NMeNle]LCG[βAla]-NH2; thioether N-14)
4 to 9.9 nM

----------
target: PD-1-Ig binding to PD-L1-TVMV-His (PD-L1-His) (Homo sapiens, UniProt Q9NZQ7); construct: hPDL1(19-239)-TVMV-His; TVMV protease cleavage site (C); experiment: PD-1/PD-L1 Homogenous Time-Resolved Fluorescence (HTRF) binding assay; conditions: PD-1-Ig (20 nM)/PD-L1-His (10 nM), range classes
Bridge positions count the residues as written; N and C are the ends. Square brackets hold non-standard residues; d marks the D form. Peptide text beside a SMILES is read from it. * marks the point of attachment. ξ: configuration not given here. Hyp = O=C(O)[C@@H]1C[C@@H](O)CN1; ξW = NC(Cc1c[nH]c2ccccc12)C(=O)O; NMeNle = CCCC[C@H](NC)C(=O)O; NMeA = CN[C@@H](C)C(=O)O; Dap = NC[C@H](N)C(=O)O; NHcPr = C1CC1N*
Measurement Label: IC50

# query: IC50 of entry CCCC[C@H]1C(=O)N(C)[C@@H](CCCC)C(=O)N[C@@H](CC(C)C)C(=O)N[C@H](C(=O)NCC(=O)NC2CC2)CSCC(=O)N[C@@H](Cc2ccc(O)cc2)C(=O)N(C)[C@@H](C)C(=O)N[C@@H](CC(N)=O)C(=O)N2CCC[C@H]2C(=O)N[C@@H](CN)C(=O)N[C@@H](CC(C)C)C(=O)N2C[C@H](O)C[C@H]2C(=O)N[C@@H](Cc2c[nH]c3ccccc23)C(=O)NCC(=O)NC(Cc2c[nH]c3ccccc23)C(=O)N1C (stereo partly shown) [Example 13091] ({CH2CO}-Y[NMeA]NP[Dap]L[Hyp]WG[ξW][NMeNle][NMeNle]LCG-NHcPr; thioether N-14)
4 to 9.9 nM
